# Experiment: rescue of alpha-synuclein yeast toxicity, dose response, S. cerevisiae, plate reader, cherry-pick (AID 602273)
# Run parameters: S. cerevisiae alpha-synuclein toxicity rescue, OD600 growth, 24 h; at 26 µM (top of the series)
Readout kind: growth rescue activity (%)
A number alone suffices; assume %.

# return recorded growth rescue activity for input CN(CCC1CCCCO1)C(=O)CCc1nnc(CCCCc2ccccc2)o1 (configuration not stated)
1.7

# return recorded growth rescue activity for input CCSc1nnc(NC(=O)c2cccnc2Cl)s1
-4.76

# return recorded growth rescue activity for input O=c1[nH]c2ccccc2n1CCC1CCCCC1
8.15

# return recorded growth rescue activity for input Cn1c(=O)c(/C=C/c2ccc(F)cc2)nc2ccccc21
8.65

# return recorded growth rescue activity for input CC(C)CC(=O)Nc1ccc(N2CCOCC2)cc1
3.83

# return recorded growth rescue activity for input O=C(Nc1ccccc1C(=O)OCC(=O)c1c[nH]c2ccccc12)c1ccco1
5.29

# return recorded growth rescue activity for input O=C(NCCN1Cc2ccccc2C1=O)c1cccs1
-6.05

# return recorded growth rescue activity for input c1ccc(N2CC3CCc4ccccc4C3=N2)cc1 (configuration not stated)
11.6

# return recorded growth rescue activity for input Cc1ccc(O)c(NC(=O)c2onc(C)c2Cl)c1
6.44

# return recorded growth rescue activity for input O=C1C2CC=CCC2C(=O)N1c1ccc(NCCc2ccccc2)c([N+](=O)[O-])c1 (configuration not stated)
11.8

# return recorded growth rescue activity for input CC(=O)Nc1cccc(NC(=O)CSc2ncc(C(=O)Nc3ccccc3)c(=O)n2C)c1
-9.48

# return recorded growth rescue activity for input O=C(O)CSc1nc2ccccc2nc1Cc1ccccc1F
5.3

---

# Experiment: rescue of alpha-synuclein yeast toxicity, dose response, S. cerevisiae, plate reader, cherry-pick (AID 602273)
# Run parameters: S. cerevisiae alpha-synuclein toxicity rescue, OD600 growth, 24 h; at 26 µM (top of the series)
Assignment: determine reported growth rescue activity for the given compounds.
A number alone suffices; assume %.

# return recorded growth rescue activity for input O=c1[nH]n(CC2COC3(CCCCC3)O2)c(=O)c2ccccc12 (stereo not drawn)
-3.22

# return recorded growth rescue activity for input Cc1ccc(/C=C2\Oc3cc(OC(=O)N4CCOCC4)ccc3C2=O)cc1
-7.43

# return recorded growth rescue activity for input COc1ccc(/C=C2/SC(=O)N(CCNC(=O)C3COc4ccccc4O3)C2=O)cc1 (stereo not drawn)
5.56

# return recorded growth rescue activity for input CCOC(=O)c1c(C)c(C(=O)Nc2ccc3c(c2)OCO3)c(C)n1C
2.62

# return recorded growth rescue activity for input CCOC(=O)C1(Cc2ccc(OC)cc2)CCN(C(=O)c2cc3ccccc3[nH]2)CC1
1.19

# return recorded growth rescue activity for input N#Cc1ccc(OCCN2CCc3ccccc3C2)cc1
4.6

# return recorded growth rescue activity for input COc1ccc(-c2nc3scc(-c4ccccc4)n3n2)cc1
-0.958

# return recorded growth rescue activity for input Cc1[nH]n(-c2ccccc2)c(=O)c1C=NCCc1ccccc1
5.9

# return recorded growth rescue activity for input COC(=O)[C@@H](Cc1c[nH]c2ccccc12)NC(=O)c1ccc2c(c1)OCO2
0.758

# return recorded growth rescue activity for input O=c1[nH][nH]c(-c2ccccc2O)c1C(C[N+](=O)[O-])c1ccccc1 (stereo not drawn)
0.55

# return recorded growth rescue activity for input COc1ccc(C(=O)n2nc(C)cc2Nc2ccccc2)cc1
2.84

# return recorded growth rescue activity for input CC(C)(C)c1ccc(COc2ccsc2C(=O)O)cc1
-21.6

# return recorded growth rescue activity for input CN(Cc1ccccc1)C(=O)c1cc(-c2ccc(Br)cc2)on1
-17.2

# return recorded growth rescue activity for input O=C1NCC2=C1C(c1ccc(Br)cc1)Nc1ccccc1N2 (stereo not drawn)
-8.45

# return recorded growth rescue activity for input O=c1c2ccccc2[nH]c(=S)n1CCC1=CCCCC1
21.3

# return recorded growth rescue activity for input Cc1ccc(CN(C)C(=O)C2CCC(=O)N(CCc3ccccc3)C2)o1 (stereo not drawn)
1.41

# return recorded growth rescue activity for input CCN(CC)CCCNC(=O)CSc1c2c(nc3cc(Cl)ccc13)CCCC2
3.73

# return recorded growth rescue activity for input CCOC(=O)CC(=O)CSCC(=O)Nc1ccc(C)cc1
-1.13

# return recorded growth rescue activity for input C=CCn1c(C)cc(C(=O)CSc2nc(N)cc(N)n2)c1C
0.814

# return recorded growth rescue activity for input Cc1ccc(CNC(=O)CSc2ccsc2[N+](=O)[O-])cc1
2.48

# return recorded growth rescue activity for input CC(=O)Nc1nnc(SCC(=O)c2ccc(F)cc2)s1
-0.765

# return recorded growth rescue activity for input O=C(CSc1nnc(-c2c[nH]c3ccccc23)n1-c1ccc(F)cc1)NCc1ccco1
0.096

# return recorded growth rescue activity for input CCc1c(C)sc(NC(=O)c2ccc(Br)o2)c1C(=O)OC
5.35
